- target: AMP-activated protein kinase, AMPK (Homo sapiens) (UniProt P54646+O43741+P54619+Q9UGJ0+Q9Y478+Q13131+Q9UGI9)
- assay_details: AMP-dependent Kinase enzyme assay. An in vitro enzyme assay that detects ADP turnover that is directly proportional to AMPK activity. This uses naive AMPK that is activated during the assay with MK-8722
- Type: functional
- Design: scale not given: direction of the effect not stated beside the values
- measurement_parameters: 30 µM
observable: Percent Effect (%)
Provide only the numeric value, understood in %.

Query: Percent Effect; subject: O=C(CCc1cscn1)N1CCCC(c2ccn[nH]2)C1 (stereo not drawn)
4.11

Request the reported Percent Effect associated with Cc1nc(C2CCCN(C(=O)C(C)(C)n3cc(Cl)cn3)C2)no1 (stereo not drawn)
-0.545

Bench note: what Percent Effect did "CCc1[nH]ncc1C(=O)N1CCCN(Cc2cnn(C)c2)CC1" show?
6.03

Find the recorded Percent Effect belonging to CN(C)c1ccc(CCNC(=O)C2CCC(=O)N(C3CCCC3)C2)cc1 (stereo not drawn) and report it.
1.17

Reported Percent Effect for "Cc1nc(N2CCN(C(=O)c3ccsc3)CC2)c2cnn(C)c2n1" : what is it?
-6.08

Quick one: Percent Effect of CCOc1ccccc1C(CC(=O)Nc1ccc(C)cn1)NC(C)=O (stereo not drawn) ?
7.35

Recorded Percent Effect for "CC(C)N(C)Cc1cnc2n1CCN(C(=O)NC1CCCC1)C2" , please?
9.85

For the molecule "Cn1ncc2c(=O)[nH]c(N3CCN(C(=O)c4ccsc4)CC3)nc21" , what Percent Effect is on record?
2.37

---

- target: Ubiquitin-activating enzyme e1, putative (Leishmania donovani (strain BPK282A1))
- assay_details: Leishmania donovani Ubiquitin Activating Enzyme (LdE1)
- Type: functional
- Set-up: scale not given: direction of the effect not stated beside the values
- measurement_parameters: 30 µM
Potency and affinity values are given separately.
# note: exactly 8% is not below, so it is n; use y for Percent Effect strictly under it

{"columns": ["compound", "assigned_class"],
 "data": [
  ["Cc1occc1C(=O)N1CCOCC2(CCN(Cc3nccs3)C2)C1 (configuration not stated)", "y"],
  ["CN(CC(=O)N1CCC(Oc2ccccc2)CC1)c1cnccn1", "n"],
  ["O=c1[nH]c2c(c(=O)n1C1CCCCC1)CCC2NCCc1ccccc1 (configuration not stated)", "y"],
  ["Cc1cc(C2CCCN(CCc3ccccn3)C2)n[nH]1 (configuration not stated)", "y"],
  ["CCn1cnnc1C1CCN(C(=O)COc2ccccc2)CC1", "n"]
]}

Kindly review the next compound as well.
Please check: Percent Effect for Cn1ncc2c1CCCC2NCc1cc(Br)cs1 (configuration not stated) , strictly under 8% or not?
n

---

- target: Arginase-2, mitochondrial (Homo sapiens)
- Sequence (whole entry): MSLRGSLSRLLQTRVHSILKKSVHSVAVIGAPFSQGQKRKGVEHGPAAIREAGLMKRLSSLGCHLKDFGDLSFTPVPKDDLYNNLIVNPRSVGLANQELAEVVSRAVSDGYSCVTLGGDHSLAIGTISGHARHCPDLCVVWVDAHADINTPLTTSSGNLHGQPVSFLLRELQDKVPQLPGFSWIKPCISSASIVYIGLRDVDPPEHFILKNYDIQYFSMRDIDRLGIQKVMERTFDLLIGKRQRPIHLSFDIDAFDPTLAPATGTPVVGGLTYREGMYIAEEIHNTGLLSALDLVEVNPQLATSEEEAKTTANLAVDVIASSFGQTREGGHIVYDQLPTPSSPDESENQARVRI
- assay_details: in vitro enzyme assay to detect the production of urea directly proportional to the activity of Arginase II; further: in the data most compounds retested in dose-response had high values
- Format: functional
- Parameters: scale not given: direction of the effect not stated beside the values
- measurement_parameters: 33.3 µM
observable: Percent Effect (%)
Field: numeric (%). Do not append units.

{"columns": ["compound", "Percent Effect / %"],
 "data": [
  ["Cc1cnn(C2CN(CC(=O)NCc3ccccn3)C2)c1", -4.32],
  ["CC(C)S(=O)(=O)NCC1CCCN(C(=O)c2ccc3c(c2)CCC3)C1 (stereo not drawn)", -2.27],
  ["Cc1cccnc1NCCNC(=O)[C@H]1CNC[C@@H](C(=O)N2CCCC2)C1", 0],
  ["CN(Cc1nc(-c2ccco2)no1)C1CCCN(c2cccnn2)C1 (stereo not drawn)", 1.14],
  ["Cn1ccnc1CN1CCN(Cc2ccccc2C#N)CC1", -0.719],
  ["c1cnn(CC2CN(CCc3ccncc3)CCO2)c1 (stereo not drawn)", 0.632],
  ["CCNC(=O)c1ccoc1CN1c2ccccc2CC1C (stereo not drawn)", 2.4],
  ["CC(C)Oc1ncccc1CNC(=O)N1CCC1c1ccccc1 (stereo not drawn)", -0.766],
  ["CCN1CC2(CC1=O)CN(Cc1cnn(C)c1)CCN(C(C)=O)C2 (stereo not drawn)", -3.33],
  ["Oc1nc(N2CCOCC2)nc2c1CCN(Cc1cccnc1)CC2", -3.48]
]}

Looking for the measured Percent Effect of "Cc1nc(COC[C@@H]2CC[C@H]3[C@H](CCN3c3ncccn3)O2)cs1" , can you help?
4.89

Reported Percent Effect, compound "O=C(NCc1cncc2c1CCN(Cc1cccs1)C2)C1CC1" : ____
9.56

For the compound "Cc1noc(C)c1CN1C[C@@H]2COC[C@H](C(=O)N3CCCCO3)[C@@H]2C1" , what Percent Effect is on record?
-1.17

Any idea what its Percent Effect is? The compound is "Cc1cnc2c(c1NCc1ccncc1)c(=O)n(C)c(=O)n2C"
-11.4

Name the recorded Percent Effect for CC(C)C(Sc1nnc(C2CC2)n1C1CC1)C(=O)NCc1cccnc1 (stereo not drawn) .
-1.42

What measured Percent Effect goes with "O=C(NCCCOCC1CC1)Nc1cccnc1N1CCOCC1" ?
-1.67

Give the measured Percent Effect of "Cn1cc(CN2C[C@@H]3COC[C@]3(COc3ccc(C#N)cn3)C2)cn1" .
1.2

Quick one: Percent Effect of "Cc1cc(N2CCN(CC(=O)N(C)C)CC2)nc(-c2ccncc2)n1" ?
-11.8
